- System: U2OS
- assay-procedure: Multiplex assay against U2OS
- Assay type: toxicity, cell-based
- condition-summary: human, 24 h, 10 µM, compound concentration 10 uM, replicate 1
Label True for high-side Population Pyknosed Nuclei (%) (at or above 30%) and False for low-side Population Pyknosed Nuclei (%) (below it).

These recorded examples may help you get a feel for the data.
                                   molecule  label
0  C=CC(=O)Nc1cccc(C(=O)Nc2ccc(Nc3cc(-c4[nH]c(SC)nc4C)ccn3)cc2)c1  False
1  Cc1[nH]c(/C=C2\C(=O)Nc3ccc(S(=O)(=O)N(C)c4cccc(Cl)c4)cc32)c(C)c1C(=O)N1CCN(C)CC1  False
2  C=CC(=O)Nc1cc2c(Nc3ccc(F)c(Cl)c3)ncnc2cc1OCCCN1CCOCC1.Cl.Cl [CANERTINIB DIHYDROCHLORIDE]  False
3  CN(C)C(=O)N[C@H]1CC[C@H](CCN2CCN(c3cccc(Cl)c3Cl)CC2)CC1.Cl [CARIPRAZINE HYDROCHLORIDE]  False
4  Cc1cc(C)cc(-c2cnc3cc(Cl)c(-c4cccc(O)c4)cc3c2OCCCN)c1   True

Alright, here's another molecule for you.
Exam item: decide whether the reported Population Pyknosed Nuclei (%) for C[C@@H](NCCCc1cccc(C(F)(F)F)c1)c1cccc2ccccc12.Cl [CINACALCET HYDROCHLORIDE] is at least 30%.
True

* * *

- Test system: Fibroblast
- assay-procedure: Multiplex assay against human fibroblast
- Format: toxicity, cell-based
- condition-summary: 48 h, 10 µM, compound concentration 10 uM, replicate 1
compounds and their reported Population Tubulin-Different-Phenotype (%)
// units = %; emit number, no label

                                   compound  result_value
0  CN(C)C(=O)N[C@H]1CC[C@H](CCN2CCN(c3cccc(Cl)c3Cl)CC2)CC1.Cl [CARIPRAZINE HYDROCHLORIDE]            81
1  CCn1c(=O)c(-c2ccc(Cl)cc2Cl)cc2cnc(Nc3ccc(N4CCNCC4)c(F)c3)nc21            15
2  CC(C)NCC(O)COc1ccc(CCOCC2CC2)cc1.Cl (stereo not drawn) [BETAXOLOL HYDROCHLORIDE]            55
3  OC1(c2ccc(Cl)cc2)CCN(Cc2c[nH]c3ccccc23)CC1            70
4  Cc1c(-c2ccc(O)cc2)n(Cc2ccc(OCCN3CCCCCC3)cc2)c2ccc(O)cc12            81

Consider the compound `NC(=O)Nc1cc(-c2cccc(F)c2)sc1C(=O)N[C@H]1CCCNC1` . State its measured Population Tubulin-Different-Phenotype (%).
24

Consider the compound `CNc1nc(NCc2ccc(NS(C)(=O)=O)cc2Cl)cc(-c2ccccn2)n1` . State its measured Population Tubulin-Different-Phenotype (%).
84

Consider the compound `Cn1cc(-c2[nH]c3cc(NC(=O)[C@H](N)C4CCCCC4)cc4c3c2C=NNC4=O)cn1` . State its measured Population Tubulin-Different-Phenotype (%).
36

* * *

molecules and their reported Population Apoptotic (%)
- Tested on: U2OS
- assay-procedure: Multiplex assay against U2OS
- Assay type: toxicity, cell-based
- condition-summary: human, 24 h, 10 µM, compound concentration 10 uM, replicate 2
// units = %; emit number, no label

Here is how some molecules turned out for Population Apoptotic (%).
In [3]: df
Out[3]:
                                   molecule  measured_on  result_value
0  COc1cccc([C@@H](C)NCCCc2ccccc2Cl)c1.Cl [TECALCET HYDROCHLORIDE]         U2OS            35
1  O=C1NCN(c2ccccc2)C12CCN(CCCOc1ccc(F)cc1)CC2 [SPIRAMIDE]         U2OS            27
2  Cl.N#Cc1ccc2[nH]cc(CCCCN3CCN(c4ccc5oc(C(N)=O)cc5c4)CC3)c2c1 [VILAZODONE HYDROCHLORIDE]         U2OS            75
3  CN1CCC[C@@H]1CCO[C@](C)(c1ccccc1)c1ccc(Cl)cc1.O=C(O)/C=C/C(=O)O [CLEMASTINE FUMARATE]         U2OS            76
4  Cn1cc(-c2[nH]c3cc(NC(=O)[C@H](N)C4CCCCC4)cc4c3c2C=NNC4=O)cn1         U2OS            86
5  CN(C)C(=O)N[C@H]1CC[C@H](CCN2CCN(c3cccc(Cl)c3Cl)CC2)CC1.Cl [CARIPRAZINE HYDROCHLORIDE]         U2OS            94
6  CC(C)(O)CNc1ncc(-c2ccnc(Nc3ccnc(Cl)c3)n2)c(CC2CC2)n1         U2OS            47
7  C[C@@H](NCCCc1cccc(C(F)(F)F)c1)c1cccc2ccccc12.Cl [CINACALCET HYDROCHLORIDE]         U2OS            92

Provide measured Population Apoptotic (%) on U2OS for CC(C)NCC(O)COc1ccc(CCOCC2CC2)cc1.Cl (stereo not drawn) [BETAXOLOL HYDROCHLORIDE] please.
40

Provide measured Population Apoptotic (%) on U2OS for C=CC(=O)Nc1cc2c(Nc3ccc(F)c(Cl)c3)ncnc2cc1OCCCN1CCOCC1.Cl.Cl [CANERTINIB DIHYDROCHLORIDE] please.
42

The measurements presented in this section are drawn from ChEMBL document CHEMBL4689842.
